# Target: PARP14 (Homo sapiens, UniProt Q460N5)
# Sequence (Q460N5 1611-1801): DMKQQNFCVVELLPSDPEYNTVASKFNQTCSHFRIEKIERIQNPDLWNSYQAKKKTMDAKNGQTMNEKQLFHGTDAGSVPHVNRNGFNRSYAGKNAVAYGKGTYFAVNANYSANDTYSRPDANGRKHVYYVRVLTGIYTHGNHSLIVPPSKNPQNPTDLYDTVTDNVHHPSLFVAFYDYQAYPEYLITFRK
# Test description: In vitro TR-FRET probe displacement assay (Probe C), PARP14
# Format: binding
# Design: made in house; host or cells: E. coli
# Test parameters: TR-FRET displacement of Probe C, PARP14 residues 1611-1801
Measurement type: IC50 (nM)
Dear colleague, please return just the value in nM, with no unit written.

Per the records, this compound ( `O=c1[nH]ncc(N2Cc3ccc(OC4CCNCC4)cc3C2)c1C(F)(F)F` ) has IC50 equal to 50

* * *

# Target: PARP10 (Homo sapiens, UniProt Q53GL7)
# Sequence (Q53GL7 808-1025): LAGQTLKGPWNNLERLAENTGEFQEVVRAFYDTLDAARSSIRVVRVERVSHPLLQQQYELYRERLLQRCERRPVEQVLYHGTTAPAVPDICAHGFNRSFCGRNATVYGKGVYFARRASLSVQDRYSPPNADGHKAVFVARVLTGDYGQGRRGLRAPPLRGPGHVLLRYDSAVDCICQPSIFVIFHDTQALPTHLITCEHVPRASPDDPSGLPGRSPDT
# Test description: NanoBRET probe displacement assay (Probe A) in live 293T cells, PARP10
# Type: cell-based
# Test parameters: NanoBRET displacement of Probe A, NanoLuc-tagged PARP10 in live 293T cells
# Experimental: MonoPARP genes from Table 5 were cloned into the pcDNA3.1-mammalian expression vector as a NanoLuc fusion with NanoLuc on the N- or C-terminus as indicated. The sequence of the NanoLuc tag is as follows: [table] Displacement of a fluorescently-labeled compound Probe A binding to NanoLuc-tagged monoPARP enzymes was measured in live cells using a bioluminescence resonance energy transfer (NanoBRET) assay. […]
Measurement type: IC50
Entry format: amount then unit.

IC50 on PARP10 (Homo sapiens, UniProt Q53GL7) for `CC(=O)N1CCC(Oc2ccc3c(n2)CN(c2cn[nH]c(=O)c2C(F)(F)F)C3)CC1` is 4 nM

* * *

# Target: catalytic domain TIPARP (Homo sapiens)
# Construct: 456-657 of
# Sequence (Q7Z3E1 456-657): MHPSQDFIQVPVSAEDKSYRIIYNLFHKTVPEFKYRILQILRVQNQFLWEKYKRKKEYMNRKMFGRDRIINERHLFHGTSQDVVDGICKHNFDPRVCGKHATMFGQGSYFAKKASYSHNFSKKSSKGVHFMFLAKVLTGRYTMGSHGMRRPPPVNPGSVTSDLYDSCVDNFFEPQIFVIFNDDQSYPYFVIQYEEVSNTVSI
# Test description: NanoBRET probe displacement assay (Probe A) in live 293T cells, catalytic domain TIPARP
# Test parameters: NanoBRET displacement of Probe A, NanoLuc-tagged catalytic domain TIPARP in live 293T cells
Measurement type: IC50 (nM)
Dear colleague, please return just the value in nM, with no unit written.

Per the records, this compound ( `N#Cc1ccc(N2CCN(C(=O)c3cccc(OC[C@@H]4c5ccccc5CN4c4cn[nH]c(=O)c4C(F)(F)F)c3)CC2)nc1` ) has IC50 equal to 7

* * *

# Target: PARP10 (Homo sapiens)
# Test description: In vitro TR-FRET probe displacement assay (Probe C), PARP10
# Format: binding
# Design: made in house; host or cells: E. coli
# Test parameters: TR-FRET displacement of Probe C, PARP10 residues 808-1025
Measurement type: pIC50
Recall that pIC50 is obtained by taking minus log10 of the concentration measured in molar.

Per the records, this compound ( O=c1[nH]ncc(N2Cc3ccc(OC4CCNCC4)cc3C2)c1C(F)(F)F [Compound A] ) has pIC50 equal to 7.10

* * *

# Target: UniProt:Q460N3
# Sequence (Q460N3 481-678): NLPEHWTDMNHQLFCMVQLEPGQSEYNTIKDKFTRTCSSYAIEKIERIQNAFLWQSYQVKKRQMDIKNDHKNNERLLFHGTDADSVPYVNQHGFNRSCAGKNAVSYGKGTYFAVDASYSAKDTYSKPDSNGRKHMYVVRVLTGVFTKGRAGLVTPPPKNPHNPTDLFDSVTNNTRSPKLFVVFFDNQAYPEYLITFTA
Measurement type: IC50 (nM)
Dear colleague, please return just the value in nM, with no unit written.

Per the records, this compound ( O=c1[nH]ncc(N2Cc3ccc(OC4CCNCC4)cc3C2)c1C(F)(F)F [Compound A] ) has IC50 equal to 60

* * *

# Target: PARP16 (Homo sapiens, UniProt Q8N5Y8)
# Sequence (Q8N5Y8 5-279 isoform Q8N5Y8-3): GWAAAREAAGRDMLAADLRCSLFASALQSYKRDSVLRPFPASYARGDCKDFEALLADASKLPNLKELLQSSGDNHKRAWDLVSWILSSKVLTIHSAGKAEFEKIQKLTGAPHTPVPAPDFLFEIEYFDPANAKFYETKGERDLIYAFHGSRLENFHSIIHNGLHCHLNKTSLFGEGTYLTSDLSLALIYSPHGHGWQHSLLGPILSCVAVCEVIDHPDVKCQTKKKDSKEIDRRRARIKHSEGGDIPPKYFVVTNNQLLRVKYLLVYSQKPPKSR
Measurement type: IC50 (nM)
Dear colleague, please return just the value in nM, with no unit written.

Per the records, this compound ( `O=c1[nH]ncc(N2Cc3ccc(OC4CCNCC4)cc3C2)c1C(F)(F)F` ) has IC50 equal to 100

* * *

# Target: UniProt:Q460N5
# Test description: NanoBRET probe displacement assay (Probe A) in live 293T cells, PARP14
# Type: cell-based
# Test parameters: NanoBRET displacement of Probe A, NanoLuc-tagged PARP14 in live 293T cells
Measurement type: IC50 (nM)
Dear colleague, please return just the value in nM, with no unit written.

Per the records, this compound ( `O=c1[nH]ncc(N2Cc3ccc(OC4CCNCC4)cc3C2)c1C(F)(F)F` ) has IC50 equal to 30

* * *

# Target: PARP12 (Homo sapiens)
# Sequence (Q9H0J9 489-684): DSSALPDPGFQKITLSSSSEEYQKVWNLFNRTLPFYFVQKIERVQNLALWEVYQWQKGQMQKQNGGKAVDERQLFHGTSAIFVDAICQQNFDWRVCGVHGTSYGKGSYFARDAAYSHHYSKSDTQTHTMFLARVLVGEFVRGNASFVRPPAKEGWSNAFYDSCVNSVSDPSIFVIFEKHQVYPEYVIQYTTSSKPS
# Test description: In vitro TR-FRET probe displacement assay (Probe C), PARP12
# Assay type: binding
# Design: 489-684 of
# Test parameters: TR-FRET displacement of Probe C, PARP12 residues 489-684
Measurement type: IC50 (nM)
Dear colleague, please return just the value in nM, with no unit written.

Per the records, this compound ( `O=c1[nH]ncc(N2Cc3ccc(OC4CCNCC4)cc3C2)c1C(F)(F)F` ) has IC50 equal to 200
